Values were extracted from ChEMBL document CHEMBL4422679.

Experiment: Oral bioavailability in Sprague-Dawley rat at 1 mg/kg
Type: ADME, organism-based
Details: in vivo
Value type: bioavailability (%)

>>> print(df.to_string())
                                   compound       value_type  result_value
0  CC1=C(c2cccc(O)c2)[C@H](c2ccc(OCCN3CC(CF)C3)cc2)Oc2ccc(O)cc21  bioavailability            16
1  Oc1ccc2c(c1)O[C@@H](c1ccc(OCCN3CC(CF)C3)cc1)C1=C2CCOc2cc(O)ccc21  bioavailability           3.2

* * *

Assay: Clearance in Sprague-Dawley rat at 1 mg/kg, iv or 1 mg/kg, po
Assay type: ADME, organism-based
Details: in vivo
Below: a set of entries, each annotated with reported clearance.
Value type: clearance (mL/min/kg)

>>> df
                                   molecule   unit_tag  result_value
0  Oc1ccc2c(c1)O[C@@H](c1ccc(OCCN3CC(CF)C3)cc1)C1=C2CCOc2cc(O)ccc21  mL/min/kg            57
1  Oc1ccc2c(c1)OCCC1=C2C(c2ccc(OCCN3CC(CF)C3)cc2)Oc2ccc(O)cc21 (stereo in doubt; 17b)  mL/min/kg           237
2  CC1=C(c2cccc(O)c2)[C@H](c2ccc(OCCN3CC(CF)C3)cc2)Oc2ccc(O)cc21  mL/min/kg            85
